# Test system: SNB-75 CNS
# test_protocol: NCI tumour cell line growth inhibition, 48 h
Provide the reported TGI of each item.

COc1ccc(N2C(=O)[C@@H](N=[N+]=[N-])[C@@H]2[C@H]2COC(C)(C)O2)cc1    > 100 µM
Oc1ccc2ccccc2c1OCc1nnc(CCCCCCCCc2nnc(COc3c(O)ccc4ccccc34)n2Nc2ccccc2)n1Nc1ccccc1    > 100 µM

Hey, quick one: what's TGI for each of these?
1. COC(=O)/C=C\n1nc(Br)c(=O)[nH]c1=O
2. CCC[CH2][Sn]([CH2]CCC)([CH2]CCC)/[C](=C/[Si](C)(C)c1ccccc1)c1ccc2c(c1)OCO2
3. CC(C)=Cc1cc(CCC/C(C)=C/Cc2c(O)cc(C)c(C(=O)O)c2O)co1
4. COc1cc(S(=O)(=O)Nc2ccc(-c3csc(N4C(=O)C(Cl)C4c4ccccc4O)n3)cc2)ccc1Cl (centres undefined)
5. CCOC(=O)c1sc2c(C(=O)OCC)n3cc(C)cc(C)c3c2c1O
6. Cc1cc(Cl)cc2c1NC(=O)C2(O)CC(=O)c1ccc(Br)cc1 (centres undefined)

Resp:
> 100 µM
> 100 µM
> 100 µM
> 100 µM
> 100 µM
> 100 µM
